Data origin: patent US20250376535A1

study.target: T1, EGFR Fc (human, UniProt P00533 25-645)
T1 construct: also called EGFR-hFc; recombinant human EGFR-Fc
protocol.notes: blocking ELISA, EGFR-hFc + VHH at 0.32 nM on coated EGF-mFc
recorded.endpoint: OD450

binder="pgEG-SX40 (VHH, not shown: small tags and cut ends) VHH: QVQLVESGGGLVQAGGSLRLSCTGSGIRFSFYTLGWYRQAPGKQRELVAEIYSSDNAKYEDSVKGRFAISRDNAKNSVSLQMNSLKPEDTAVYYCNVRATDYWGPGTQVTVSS" value_observed=1.03
binder="pgEG-SX6 (VHH, not shown: small tags and cut ends) VHH: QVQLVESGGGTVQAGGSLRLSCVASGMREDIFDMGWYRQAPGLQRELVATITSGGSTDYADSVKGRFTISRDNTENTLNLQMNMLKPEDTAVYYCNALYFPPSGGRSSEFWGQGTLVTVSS" value_observed=1.07
binder="pgEG-SX57 (VHH, not shown: small tags and cut ends) VHH: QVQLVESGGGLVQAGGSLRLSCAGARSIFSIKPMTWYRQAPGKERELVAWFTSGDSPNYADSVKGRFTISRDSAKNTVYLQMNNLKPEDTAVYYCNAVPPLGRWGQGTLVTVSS" value_observed=1.08
binder="pgEG5 (VHH, not shown: small tags and cut ends) VHH: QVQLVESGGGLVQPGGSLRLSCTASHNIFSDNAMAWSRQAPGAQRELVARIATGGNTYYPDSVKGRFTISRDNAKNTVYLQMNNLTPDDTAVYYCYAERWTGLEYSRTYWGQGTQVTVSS" value_observed=1.16
